# Assay Info: Toxicity liver stage against HepG2, at 10uM
# Format: cell-based
# Design: test concentration 10 uM, cell line HepG2-A16-CD81EGFP
# Experimental Conditions: human, HepG2-A16-CD81EGFP cells; read-out: INHIBITION
Value Kind: cytotoxicity at 10 µM (%)
Report only the number, with the unit % understood.

Cc1ncc(CN(Cc2ccccn2)Cc2ccccc2Cl)n1C; -1.45
O=C(c1cscn1)N1CCc2[nH]nc(Nc3ccccc3)c2C1; 7.82
CC(C)Cc1noc(CN2CCOCC2C)n1 (configuration not stated); 2.8
COCCN1Cc2nccn2CC(COCc2csc(C)n2)C1 (configuration not stated); 6.22
CCOCCNC(=O)Nc1cccc(-c2nccn2C)c1; -3.26
CCCn1c(C)c(CC(=O)NC(C)(C)CO)c2c1CC(C)(C)CC2=O; -8.97
Cc1cccc(C(=O)NC(CN2CCCC2=O)c2ccccc2)n1 (configuration not stated); -9.16
O=C(CN1CCCC(Cn2cncn2)C1)NCCC1=CCCCC1 (configuration not stated); -3.33

(Q) Which measured cytotoxicity at 10 µM value corresponds to Cc1cnn(CC2CCCN2Cc2noc(C3CC3)n2)c1 (configuration not stated) ?
(A) -17.3

(Q) Also Oc1ccc(C2Nc3ccccc3C3=NCCCN32)cc1 (configuration not stated) , if possible.
(A) -39.1

(Q) Also Cc1csc2ncc(-c3ccnc(N4CCCC[C@@H]4CO)n3)c(=O)n12 , if possible.
(A) 9.12

(Q) Also O=C(NC1CCN(c2ncccn2)CC1)c1sccc1C1CC1 , if possible.
(A) -5.75
